B1: Subtilisin-chymotrypsin inhibitor-2A, P01053 (parent)
chain: MSSVEKKPEGVNTGAGDRHNLKTEWPELVGKSVEEAKKVILQDKPEAQIIVLPVGTIVTMEYRIDRVRLFVDKLDNIAQVPRVG

Variants of: B1
CONDITIONS: Hordeum vulgare; pH 6.25; 25 °C; GdnHCl; Fluorescence; MES 50 mM; reversible: yes; structure 2CI2; whole UniProt chain shown
# Lookup of reported ddG of mutation (higher = less stable) keyed by entry

[
  {
    "ITEM SEQUENCE": "MSSVEKKPEGVNTGAGDRHNLKTEWPELVGKSVEEAKKVILQDKPEAQIIVLPVGVIVTMEYRIDRVRLFVDKLDNIAQVPRVG [T56V]",
    "ddG of mutation (higher = less stable) (kJ/mol)": 6.57
  },
  {
    "ITEM SEQUENCE": "MSSVEKKPEGVNTGAGDRHNLKTEWPELVGKSVEEAKKVVLQDKPEAQIIVLPVGTIVTMEYRIDRVRLFVDKLDNIAQVPRVG [I40V]",
    "ddG of mutation (higher = less stable) (kJ/mol)": 4.06
  },
  {
    "ITEM SEQUENCE": "MSSVEKKPEGVNTGAGDRHNLKTEWPELVGKGVAAAKKVILQDKPEAQIIVLPVGTIVTMEYRIDRVRLFVDKLDNIAQVPRVG [S32G E34A E35A]",
    "ddG of mutation (higher = less stable) (kJ/mol)": 3.39
  },
  {
    "ITEM SEQUENCE": "MSSVEKKPEGVNTGAGDRHNLKTEWPELVGKSVEEAKKVILQDKPEAQIIVLPVGTIVTMEYRIDRVRLAVDKLDNIAQVPRVG [F70A]",
    "ddG of mutation (higher = less stable) (kJ/mol)": 13.4
  },
  {
    "ITEM SEQUENCE": "MSSVEKKPEGVNTGAGDRHNLKTEWPELVGKSVEEAKKVILQDKPEAQIIVLPVGTIVTMEYAIDRVRLFVDKLDNIAQVPRVG [R63A]",
    "ddG of mutation (higher = less stable) (kJ/mol)": 4.27
  },
  {
    "ITEM SEQUENCE": "MSSVEKKPEGVNTGAGDRHNLKTEWPALVGKSVEEAKKVILQDKPEAQIIVLPVGTIVTMEYRIDRVRLFVDKLDNIAQVPRVG [E27A]",
    "ddG of mutation (higher = less stable) (kJ/mol)": 4.31
  },
  {
    "ITEM SEQUENCE": "MSSVEKKPEGVNTGAGDRHNLKTEWPELVGKSVEEAKKVILQDKPEAQIIVLPVGTIATMEYRIDRVRLLVDKLDNIAQVPRVG [V58A F70L]",
    "ddG of mutation (higher = less stable) (kJ/mol)": 9.2
  },
  {
    "ITEM SEQUENCE": "MSSVEKKPEGVNTGAGDRHNLKTEWPELVGKSVEEAKKVILQDKPEAQIIVAPVGTIVTMEYRIDRVRLAVDKLDNIAQVPRVG [L52A F70A]",
    "ddG of mutation (higher = less stable) (kJ/mol)": 21.6
  },
  {
    "ITEM SEQUENCE": "MSSVEKKPEGVNTGAGDRHNLKTEWPELVGKSVEEAKKVILQDKPEAQIIVLPVGTIVTMEYRIDRVRLLVDKLDNIAQVPRVG [F70L]",
    "ddG of mutation (higher = less stable) (kJ/mol)": 8.03
  },
  {
    "ITEM SEQUENCE": "MSSVEKKPEGVNTGAGDRHNLKTEWPELVGKAVEEAKKVILQDKPEAQIIVLPVGTIVTMEYRIDRVRLFVDKLDNIAQVPRVG [S32A]",
    "ddG of mutation (higher = less stable) (kJ/mol)": 4.27
  },
  {
    "ITEM SEQUENCE": "MSSVEKKPEGVNTGAGDRHNLKTEWPELVGKSVEEAGKVILQDKPEAQIIVLPVGTIVTMEYRIDRVRLFVDKLDNIAQVPRVG [K37G]",
    "ddG of mutation (higher = less stable) (kJ/mol)": 8.41
  },
  {
    "ITEM SEQUENCE": "MSSVEKKPEGVNTGAGDRHNLKTEWPELVGKSVEEAKKVILQDKPEAQIIVLPVGTIATMEYRIDRVRLFVDKLDNIAQAPRVG [V58A V80A]",
    "ddG of mutation (higher = less stable) (kJ/mol)": 15.8
  },
  {
    "ITEM SEQUENCE": "MSSVEKKPEGVNTGAGDRHNLKTEWPELVGKSVEEAKKVILQDKPEAQIIVVPVGTIVTMEYRIDRVRLLVDKLDNIAQVPRVG [L52V F70L]",
    "ddG of mutation (higher = less stable) (kJ/mol)": 4.52
  },
  {
    "ITEM SEQUENCE": "MSSVEKKPEGVNTGAGDRHNLKTEWPELVGKSVEEAKKVILQDKPEAMIIVLPVGTIVTLEYRIDRVRLFVDKLDNIAQVPRVG [Q48M M60L]",
    "ddG of mutation (higher = less stable) (kJ/mol)": 0.753
  },
  {
    "ITEM SEQUENCE": "MSSVEKKPEGVNTGAGDRHNLKTEWPELVGKSVEEAKKVILQDKPEAQIIVIPVGTIVTMEYRIDRVRLFVDKLDNIAQVPRVG [L52I]",
    "ddG of mutation (higher = less stable) (kJ/mol)": 4.23
  },
  {
    "ITEM SEQUENCE": "MSSVEKKPEGVNTGAGDRHNLKTEWPELVGKSVEEAKKVILQDKPEAQIIVAPVGTIATMEYRIDRVRLLVDKLDNIAQVPRVG [L52A V58A F70L]",
    "ddG of mutation (higher = less stable) (kJ/mol)": 14
  },
  {
    "ITEM SEQUENCE": "MSSVEKKPEGVNTGAGDRHNLKTEWPELVGKSVEEAKKVILQDKPEAQIIVLPVGTIVTMEYRIDRVRLFVDKLDNIAQVARVG [P81A]",
    "ddG of mutation (higher = less stable) (kJ/mol)": 14.6
  },
  {
    "ITEM SEQUENCE": "MSSVEKKPEGVNTGAGDRHNLKTEWPELVGASVEEAKKVILQDKPEAQIIVLPVGTIVTMEYRIDRVRLFVDKLDNIAQVPRVG [K31A]",
    "ddG of mutation (higher = less stable) (kJ/mol)": 5.02
  },
  {
    "ITEM SEQUENCE": "MSSVEKKPEGVNTGAGDRHNLKTEWPELVGKSVEEAKKVILGDKPEAQIIVLPVGTIVTMEYRIDRVRLFVDKLDNIAQVPRVG [Q42G]",
    "ddG of mutation (higher = less stable) (kJ/mol)": 3.85
  },
  {
    "ITEM SEQUENCE": "MSSVEKKPEGVNTGAGDRHNLKTEWPELVGKSVEEAKKVILQDKPEAQIIVAPVGTIVTMEYRIDRVRLLVDKLDNIAQVPRVG [L52A F70L]",
    "ddG of mutation (higher = less stable) (kJ/mol)": 13.6
  },
  {
    "ITEM SEQUENCE": "MSSVEKKPEGVNTGAGDRHNLKTEWPELVGKSVENAKKVILQDKPEAQIIVLPVGTIVTMEYRIDRVRLFVDKLDNIAQVPRVG [E35N]",
    "ddG of mutation (higher = less stable) (kJ/mol)": 0.335
  },
  {
    "ITEM SEQUENCE": "MSSVEKKPEGVNTGAGDRHNLKTEWPELVGKSVQEAKKVILQDKPEAQIIVLPVGTIVTMEYRIDRVRLFVDKLDNIAQVPRVG [E34Q]",
    "ddG of mutation (higher = less stable) (kJ/mol)": 1.67
  }
]

// provenance: FireProtDB (doi:10.1006/jmbi.1995.0616)
